# testProtocol: Staphylococcus aureus RN4220 growth blockers – two temperatures, LtaS inhibitor project, primary screen (AID 720641)
# recordedConditions: S. aureus RN4220 growth, OD600, 20 h, 42 °C; measured here: growth at 30 °C; stronger effect = lower value
The whole screen tested about 170,000 compounds, of which about 900 (0.53%) were called active. The sample as a whole holds a higher share of actives than the screen did.
Decide using relative growth alone. Strictly below 90%: 1. Equal to or above 90%: -1.

Past entries and their recorded results:
compound=Oc1ccc(-n2cccc2)cc1 classassignment=-1
compound=CCn1c(SCc2c(C)noc2C)nc2cc(S(=O)(=O)N3CCOCC3)ccc21 classassignment=-1
compound=Cc1ccc(Nc2nc3ccccc3nc2-n2nc(C)cc2C)c(Cl)c1 classassignment=1
compound=COc1ccc(OCCn2c(S(=O)(=O)Cc3ccccc3)nc3ccccc32)cc1 classassignment=-1
compound=CC(C)NC(=O)COc1ccc(-c2nn(C)c(=O)c3ccccc23)cc1 classassignment=1
compound=Cc1cccc(Nc2cc(C)nc(-n3nc(C)cc3C)n2)c1 classassignment=1
compound=CCOC(=O)c1cnc2c(F)cc(F)cc2c1N1CCOCC1 classassignment=-1
compound=c1ccc2cc3cnccc3cc2c1 classassignment=1

Now examine the next entry.
Query block: In the record for CC(=O)Oc1cccc2c1OC(C)(C)C2 , is relative growth less than 90%?
Result block: -1

----------
# testProtocol: Staphylococcus aureus RN4220 growth blockers – two temperatures, LtaS inhibitor project, primary screen (AID 720641)
# recordedConditions: S. aureus RN4220 growth, OD600, 20 h, 42 °C; stronger effect = lower value
In all, about 170,000 compounds went through this assay and about 900 (0.53%) were called active. The entries come from a sample that favours actives as a whole.
Kindly state relative growth for each of the entries shown.
Numbers only, in %.

compound=Sc1ccc2ccccc2c1 uom=% value=82.2

Below are some compounds; for each one, tell me its relative growth.
1. Cc1ccc2nc(COC(=O)Cn3[nH]c(=O)c4ccccc4c3=O)cc(=O)n2c1
2. COc1ccc(/C=C/C(=O)N2CCCC2)cc1OC

Result block:
[78.6, 81.4]

----------
# testProtocol: Staphylococcus aureus RN4220 growth blockers – two temperatures, LtaS inhibitor project, primary screen (AID 720641)
# recordedConditions: S. aureus RN4220 growth, OD600, 20 h, 42 °C; stronger effect = lower value
About 900 (0.53%) of roughly 170,000 compounds were called active. The sample holds actives, similar compounds and a random draw of the others, so the mix is not that of the screen.
valueType: relative growth (%)
Numbers only, in %.

These recorded examples may help you get a feel for the data.
compound="Cc1oc2c(c1C(=O)NC(C)c1ccccc1)C(=O)c1ccccc1C2=O (stereo unspecified)" uom=% value=9.3
compound=O=C(N/C=C/c1ccsc1)Nc1cc(C(F)(F)F)cc(C(F)(F)F)c1 uom=% value=-2.07
compound=CC(=O)OCC(=O)CC12CC3CC(CC(C3)C1)C2 uom=% value=83.3
compound=CCOC(=O)Nc1sccc1C(N)=O uom=% value=106
compound="C1=CCC(/C=N/Nc2nc3ccccc3o2)CC1 (stereo unspecified)" uom=% value=82
compound="COCC(C)NC(=O)Nc1c[nH]c2ccccc12 (stereo unspecified)" uom=% value=78.5
compound=CSCCC(=O)Nc1nc2ccccc2[nH]1 uom=% value=113
compound=O=C(O)CCCC(=O)Nc1cc(C(F)(F)F)cc(C(F)(F)F)c1 uom=% value=101

Below are some compounds; for each one, tell me its relative growth.
1. CCC(CC)C(=O)N(c1ccc(OC)cc1OC)C1C=CS(=O)(=O)C1 (stereo unspecified)
2. CN1CCN(c2nc(C34CC5CC(CC(C5)C3)C4)cs2)CC1
3. Nc1ccc(C(=O)Nc2ccc(C(=O)O)cc2N)cc1
4. CCCNc1ncnc2onc(-c3ccc(F)cc3)c12
5. CSc1ccc(Cl)c(C(=O)OCC(=O)N2CCC(C)CC2)c1

Result block:
[99.8, -0.89, 108, 90.2, 102]

Below are some compounds; for each one, tell me its relative growth.
1. COc1cccc2c1OCc1sc3[nH]c(=S)[nH]c(=O)c3c1-2
2. O=C(Nc1nnc(C2CC2)s1)c1cc(Cl)sc1Cl
3. Cc1ccccc1-c1nc(CS(=O)(=O)CC(=O)NC(C)c2ccccc2)c(C)o1 (stereo unspecified)

Result block:
[50.5, 77.4, 101]

----------
# testProtocol: Staphylococcus aureus RN4220 growth blockers – two temperatures, LtaS inhibitor project, primary screen (AID 720641)
# recordedConditions: S. aureus RN4220 growth, OD600, 20 h, 42 °C
Screen size: about 170,000 compounds; about 900 (0.53%) were called active.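 How the source made its calls: active means relative growth at most 50% at the other temperature and 20+ points below 30 °C, or under 10% at both; inactive means the rest, inconclusive results apart.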 What follows is part of a selection rich in actives, with near analogues and random picks from the rest.
Respond with a class label; see 1 (yes) = active, 0 (no) = inactive

Past entries and their recorded results:
molecule=O=C(/C=C/c1ccccc1)OCC(=O)N1CCc2ccccc21 classassignment="0 (no)"
molecule=CCOC(=O)c1oc2ccccc2c1N=Cc1c(O)n(CC)c(=S)n(CC)c1=O classassignment="0 (no)"
molecule=CCN(CC(=O)NCc1ccc(Cl)cc1)C(=O)c1c(C)noc1C classassignment="0 (no)"
molecule=c1ccc2c(c1)CC(Nc1ccc3cn[nH]c3c1)C2 classassignment="1 (yes)"
molecule="CC1=NN(c2ccccc2)C(=O)C1C=C1C(=O)N(C)C(=S)N(C)C1=O (configuration not stated)" classassignment="0 (no)"

Query block: Can you look up the reported call for CCOC(=O)CSc1ccccn1 for me?
Result block: 0 (no)

Query block: Can you look up the reported call for CCOC(=O)CCSc1ccccn1 for me?
Result block: 1 (yes)

----------
Kindly state relative growth for each of the entries shown.
# testProtocol: Staphylococcus aureus RN4220 growth blockers – two temperatures, LtaS inhibitor project, primary screen (AID 720641)
# recordedConditions: S. aureus RN4220 growth, OD600, 20 h, 42 °C; measured here: growth at 30 °C; stronger effect = lower value
Out of some 170,000 compounds screened, about 900 (0.53%) were called active. What follows is part of a selection rich in actives, with near analogues and random picks from the rest.
Give bare numbers, in %.

These recorded examples may help you get a feel for the data.
compound=CCOC(=O)N1CCN(CC(=O)NCCc2ccc(Cl)cc2Cl)CC1 valuetype="relative growth" uom=% value=81.3
compound=CC(C)(C)c1ccc(S(=O)(=O)N2CCN(C(=O)c3cc(-c4ccc(Br)cc4)n[nH]3)CC2)cc1 valuetype="relative growth" uom=% value=102
compound=CN(C)/N=C/c1ccc(OC(=O)c2ccco2)cc1 valuetype="relative growth" uom=% value=89.5

Query block: If you can, please state the reported relative growth value of CC1=Nc2c(ccc3cccnc23)C1(C)C .
Result block: 2.08

----------
# testProtocol: Staphylococcus aureus RN4220 growth blockers – two temperatures, LtaS inhibitor project, primary screen (AID 720641)
# recordedConditions: S. aureus RN4220 growth, OD600, 20 h, 42 °C; measured here: growth at 30 °C; stronger effect = lower value
Out of some 170,000 compounds screened, about 900 (0.53%) were called active. For the sample, actives were picked, then their nearest neighbours and some compounds at random.
valueType: relative growth
The reply should consist of the numeric value with the unit placed after it.

These recorded examples may help you get a feel for the data.
molecule=CC(=O)Nc1ccc2c(c1)CN(C1CCCCC1)CO2 value=87.6%
molecule=CC(C)=CCOc1ccc2c3c(c(=O)oc2c1C)CCCC3 value=97.1%

Below are some molecules; for each one, tell me its relative growth.
1. CCC(CC)C(=O)N(c1ccc(OC)cc1OC)C1C=CS(=O)(=O)C1 (stereo not drawn)
2. CS(=O)(=O)c1ccc(-c2nnc(NC(=O)c3ccc4c(c3)OCCO4)o2)cc1
3. O=C(Cn1cc(C(F)(F)F)cc(Cl)c1=O)Nc1ncccn1
4. COc1ccc(N=C2SCCCN2C(=O)C2CCCC2)cc1OC
5. O=C(Nc1ccccc1)Nc1ccc(Cl)c(Cl)c1
6. COC(=O)c1ccc(NS(=O)(=O)c2cc(C(=O)OC)n(C)c2)cc1

Result block:
["90.8%", "85.3%", "94.7%", "86%", "2.42%", "88%"]

----------
# testProtocol: Staphylococcus aureus RN4220 growth blockers – two temperatures, LtaS inhibitor project, primary screen (AID 720641)
# recordedConditions: S. aureus RN4220 growth, OD600, 20 h, 42 °C; stronger effect = lower value
In all, about 170,000 compounds went through this assay and about 900 (0.53%) were called active. For the sample, actives were picked, then their nearest neighbours and some compounds at random.
valueType: relative growth (%)
One number for each entry, in %.

These recorded examples may help you get a feel for the data.
compound=C=CCn1c(SCC(=O)Nc2sc(C(=O)OC)c(C)c2C(=O)OC)nc2ccccc21 valuetype="relative growth" uom=% value=103
compound="COc1ccc(F)cc1C(O)CSCc1ccccc1 (centres undefined)" valuetype="relative growth" uom=% value=124
compound=CCOC(=O)N1CCC(N(CCOC)C(=S)Nc2ccccc2F)CC1 valuetype="relative growth" uom=% value=83.6

Here's the next entry for you.
Query block: If you can, please state the reported relative growth value of CN(C)c1ccc(Nc2nc3ccccc3nc2NS(=O)(=O)c2cccs2)cc1 .
Result block: 105
